- target-of-assay: PHD2 (Homo sapiens, UniProt Q9GZT9)
- Sequence (Q9GZT9 181-426): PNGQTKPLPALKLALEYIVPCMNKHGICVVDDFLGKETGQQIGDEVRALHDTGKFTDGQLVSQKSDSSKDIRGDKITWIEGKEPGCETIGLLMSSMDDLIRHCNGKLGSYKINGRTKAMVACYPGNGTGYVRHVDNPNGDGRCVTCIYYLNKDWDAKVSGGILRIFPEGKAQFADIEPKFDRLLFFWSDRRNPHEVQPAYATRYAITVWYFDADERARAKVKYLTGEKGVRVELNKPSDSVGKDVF
- protocol-summary: biochemical
observable: log10(IC50) (log10 of the value in µM)
Quick note: numbers are log10 of IC50, with µM as the unit.

- molecule: "O=C(O)Cc1cs/c(=N\\C(=O)C2CCCN(S(=O)(=O)c3ccccc3)C2)n1O (centres unmarked)"
  log10(IC50): 1.04
- molecule: "C[C@@H]1CN(S(=O)(=O)c2ccccc2)C[C@H]1C(=O)/N=c1\\scc(CC(=O)O)n1O (relative stereo)"
  log10(IC50): 1.86
- molecule: "O=C(O)Cc1cs/c(=N\\C(=O)CCNS(=O)(=O)c2ccccc2)n1O"
  log10(IC50): 0.81

Reported log10(IC50) (PHD2 (Homo sapiens, UniProt Q9GZT9)) for entry O=C(O)Cc1csc(=NC(=O)C2CCN(S(=O)(=O)Cc3ccccc3)C2)n1O (centres unmarked) is 0.84

Reported log10(IC50) (PHD2 (Homo sapiens, UniProt Q9GZT9)) for entry COc1ccc(S(=O)(=O)N2CCC(C(=O)N=c3scc(CC(=O)O)n3O)C2)cc1 (centres unmarked) is 0.99

Reported log10(IC50) (PHD2 (Homo sapiens, UniProt Q9GZT9)) for entry O=C(O)Cc1cs/c(=N\C(=O)C2CCCN2S(=O)(=O)c2ccccc2)n1O (centres unmarked) is 1.10
